experimentalTarget: full length human PDGFR-beta on HEK293 cells (human, UniProt P09619 33-1106)
Sequence (P09619 33-1106 limits assumed): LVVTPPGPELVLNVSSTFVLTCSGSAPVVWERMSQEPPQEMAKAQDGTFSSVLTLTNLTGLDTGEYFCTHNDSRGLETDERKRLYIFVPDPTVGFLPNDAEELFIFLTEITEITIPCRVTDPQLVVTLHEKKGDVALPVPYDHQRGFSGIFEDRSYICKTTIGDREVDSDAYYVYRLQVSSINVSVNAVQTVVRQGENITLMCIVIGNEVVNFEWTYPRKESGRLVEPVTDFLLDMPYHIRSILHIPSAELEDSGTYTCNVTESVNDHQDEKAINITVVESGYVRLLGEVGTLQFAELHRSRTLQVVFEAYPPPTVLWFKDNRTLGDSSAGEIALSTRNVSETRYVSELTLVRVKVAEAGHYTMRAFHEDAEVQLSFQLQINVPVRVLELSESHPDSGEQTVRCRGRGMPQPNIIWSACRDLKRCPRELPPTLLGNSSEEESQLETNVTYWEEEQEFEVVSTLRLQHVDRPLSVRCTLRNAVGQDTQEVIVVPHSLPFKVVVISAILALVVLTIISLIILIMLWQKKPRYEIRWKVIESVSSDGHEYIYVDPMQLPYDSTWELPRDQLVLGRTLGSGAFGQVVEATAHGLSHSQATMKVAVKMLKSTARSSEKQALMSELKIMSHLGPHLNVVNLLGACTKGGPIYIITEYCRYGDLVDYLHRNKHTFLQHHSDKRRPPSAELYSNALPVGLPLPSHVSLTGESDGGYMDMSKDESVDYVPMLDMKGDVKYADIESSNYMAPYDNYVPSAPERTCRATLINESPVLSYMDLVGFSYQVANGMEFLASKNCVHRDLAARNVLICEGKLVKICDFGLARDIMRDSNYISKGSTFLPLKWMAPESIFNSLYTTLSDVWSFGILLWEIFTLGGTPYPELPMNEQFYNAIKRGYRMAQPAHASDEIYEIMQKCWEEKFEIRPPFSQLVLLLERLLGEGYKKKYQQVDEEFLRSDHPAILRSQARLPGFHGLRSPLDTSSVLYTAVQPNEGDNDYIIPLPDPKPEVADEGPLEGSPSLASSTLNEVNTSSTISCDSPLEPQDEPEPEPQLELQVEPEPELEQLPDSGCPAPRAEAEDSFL
testProtocol: cell-based or functional assay
endpointName: IC50, blocking PDGF-DD (400 pM) activation, SRE-luciferase

[
  {
    "binder": "H2M3368N (antibody, V domains shown, mouse Fc (H2M prefix; isotype not spelled out)) VH: QVQLQQWGAGLLKPSETLSLTCAVYGGSFSGYYWTWIRQSPGKGLEWMGEISHRGTTNYNPSLKSRLTISLDTSNNHFSLKLSSVTAADTAVYYCAREERLGMGYDYFGLDVWGQGTTVTVSS VL: EIVLTQSPATLSLSPGERATLSCRASQSVSTYLTWYQQKPGQAPRLLIYDASNRATGIPARFSGSGSGTDFTLTISSLEPEDCAVYYCQQRSIWITFGQGTRLEIK",
    "valueMeasured": "1.7e-10"
  },
  {
    "binder": "H4H3374N (antibody, human IgG4, V domains shown, human IgG4 Fc (H4H prefix)) VH: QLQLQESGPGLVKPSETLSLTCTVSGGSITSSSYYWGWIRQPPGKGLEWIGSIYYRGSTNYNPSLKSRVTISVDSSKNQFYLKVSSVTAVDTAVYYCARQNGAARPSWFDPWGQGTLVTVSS VL: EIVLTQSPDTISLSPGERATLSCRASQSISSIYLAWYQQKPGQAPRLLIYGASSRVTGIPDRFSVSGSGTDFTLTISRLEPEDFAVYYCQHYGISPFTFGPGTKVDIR",
    "valueMeasured": "1.5e-10"
  },
  {
    "binder": "H1M3374N (antibody, V domains shown, mouse Fc format; also called H2M3374N) VH: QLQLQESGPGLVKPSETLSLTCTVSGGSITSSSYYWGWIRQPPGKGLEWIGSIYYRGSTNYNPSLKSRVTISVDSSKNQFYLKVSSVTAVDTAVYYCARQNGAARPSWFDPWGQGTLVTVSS VL: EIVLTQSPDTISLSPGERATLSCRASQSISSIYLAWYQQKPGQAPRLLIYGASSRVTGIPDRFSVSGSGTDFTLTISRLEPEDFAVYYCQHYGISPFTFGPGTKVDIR",
    "valueMeasured": "2.1e-10"
  }
]
